Listed here: items and their measured Binding affinity (RU).
molecular target: acetylcholine receptor; assay: SPR, AchR immobilized on CM5 chip, peptide at 10 uM
Report the figure in RU without appending any unit label.

Worked cases, answers included:
RYSKK [5mer-721]	22
RSFQRR [6mer-2-361]	153

Now for a further binder.
Reported Binding affinity (RU) ( KTPWR [5mer-1040] ) = 17
